molecular target: furin, P09958; assay: furin cleavage Z-score vs untreated control; higher = more cleavage, active = 3.5 or more, inactive = 1 or less, 8 variable residues between constant flanks; details: 7.5 min;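 note: purified furin at 1:10 enzyme:substrate in 50 mM HEPES pH 7.5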
Sequence (P09958 whole entry): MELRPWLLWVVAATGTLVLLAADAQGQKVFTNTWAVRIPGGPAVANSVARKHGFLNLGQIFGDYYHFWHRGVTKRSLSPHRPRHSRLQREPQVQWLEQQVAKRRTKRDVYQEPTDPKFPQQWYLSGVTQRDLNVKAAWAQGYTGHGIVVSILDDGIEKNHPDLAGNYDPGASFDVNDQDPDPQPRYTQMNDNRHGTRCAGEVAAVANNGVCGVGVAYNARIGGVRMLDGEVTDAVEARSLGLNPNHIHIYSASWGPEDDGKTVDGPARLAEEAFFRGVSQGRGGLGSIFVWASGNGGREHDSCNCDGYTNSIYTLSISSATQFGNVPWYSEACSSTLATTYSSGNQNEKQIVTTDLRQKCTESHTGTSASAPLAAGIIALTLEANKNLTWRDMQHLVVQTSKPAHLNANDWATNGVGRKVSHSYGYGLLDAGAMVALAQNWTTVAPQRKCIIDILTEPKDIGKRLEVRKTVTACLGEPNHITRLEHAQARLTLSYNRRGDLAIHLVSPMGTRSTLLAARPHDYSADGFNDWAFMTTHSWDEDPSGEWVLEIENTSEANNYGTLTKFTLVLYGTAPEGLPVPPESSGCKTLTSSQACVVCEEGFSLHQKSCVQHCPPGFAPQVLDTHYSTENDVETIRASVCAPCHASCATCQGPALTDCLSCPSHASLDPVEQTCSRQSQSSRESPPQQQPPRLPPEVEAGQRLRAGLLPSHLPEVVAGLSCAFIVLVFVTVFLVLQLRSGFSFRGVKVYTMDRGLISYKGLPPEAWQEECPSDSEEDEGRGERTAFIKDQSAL
Some of the results follow. How many sequences the whole screen found active is unknown.
Your answer must be one of the following: active, inactive

These solved cases illustrate the format of a correct answer.
| residue.string | answer.label |
| --- | --- |
| CASVLCECYDAGNASASA [HC918] | inactive |
| CAQVGDFHYVAGNASASA [HC1208] | inactive |
| CAPISYANGSAGNASASA [HC396] | inactive |
| CADYMEECSQAGNASASA [HC1809] | inactive |
| CAMEECSQHYAGNASASA [HC1769] | inactive |
| CATAKREKRWAGNASASA [FS-1421] | active |

State the result this test recorded for CANDSRHLRNAGNASASA [FS-1647] .
inactive
